Assay: p53 small molecule agonists, cell-based qHTS assay: qHTS cell viability counter screen (AID 1963581); note: % is set by controls: 0 for no effect and ±100 for the full control effect; nearly all actives have a fitted effect of over 45% in size
Details: p53RE-bla HCT-116 viability, ATP luminescence, 16 h; series mostly up to 66 µM
Text: National Center for Advancing Translational Sciences [NCATS] Division of Preclinical Innovation [DPI] U.S. Environmental Protection Agency [EPA] National Institutes of Environmental Health Sciences [NIEHS] National Toxicology Program [NTP] U.S. Food and Drug Administration [FDA] p53, a tumor suppressor protein, is activated following cellular insult, including DNA damage and other cellular stresses. […] The activation of the reporter gene under culture conditions can be detected by fluorescence intensity. […]
Inconclusive results are not listed. Calls of active or inactive are those of the source. Calls come from the whole dose curve.
attributeMeasured: activity change, negative = cytotoxicity

Worked set:
>>> obsvalue("Cc1ccc(-n2nc(C(C)(C)C)cc2NC(=O)Nc2ccc(OCCN3CCOCC3)c3ccccc23)cc1")
"inactive"
>>> obsvalue("CNC(=O)c1ccccc1Sc1ccc2c(/C=C/c3ccccn3)n[nH]c2c1")
"inactive"
>>> obsvalue("NC(=O)Nc1ccc(Cl)c(Cl)c1")
"inactive"
>>> obsvalue("CCc1cccc(C)c1")
"inactive"
>>> obsvalue("O=C(CCN1CCN2CCCC2C1)N1c2ccccc2Sc2ccc(Cl)cc21 (stereo not given)")
"-8.91% [at 13.5 µM] (inactive)"

Param item = "CC(C)=CC(=O)O" ; retrieve measured activity change, negative = cytotoxicity.
inactive

Param item = "O=C(COCCOCCOCC(=O)Nc1c(I)cc(I)c(C(=O)O)c1I)Nc1c(I)cc(I)c(C(=O)O)c1I" ; retrieve measured activity change, negative = cytotoxicity.
inactive

Param item = "CNC(=O)c1c(I)c(NC(=O)CCCCC(=O)Nc2c(I)c(C(=O)O)c(I)c(C(=O)NC)c2I)c(I)c(C(=O)O)c1I" ; retrieve measured activity change, negative = cytotoxicity.
inactive

Param item = "CCCCCCCCCCCCCCCC[N+](C)(C)CCN(Cc1ccc(OC)cc1)c1ncccn1" ; retrieve measured activity change, negative = cytotoxicity.
inactive

Param item = "CC[C@H](NC(C)C)[C@H](O)c1ccc(O)c2[nH]c(=O)ccc12" ; retrieve measured activity change, negative = cytotoxicity.
inactive

---

Target: Muscarinic acetylcholine receptor M1 (Homo sapiens)
Test: Cholinergic receptor muscarinic 1 (CHRM1) small molecule antagonists, cell-based qHTS assay (AID 1963588); note: nearly all actives have a fitted effect of over 40% in size
Settings: CHRM1-CHO antagonist mode, calcium flux fluorescence; series mostly up to 61.5 µM
Records with an inconclusive call do not appear. Activity calls are given as the source filed them. The call rests on the fitted dose curve.
In this exercise, the only acceptable responses are active, inactive

Consider the following illustrative entries.
>>> category("O=[N+]([O-])c1ccc(F)c(Cl)c1")
"inactive"
>>> category("CCOC(=O)CC#N")
"inactive"
>>> category("C=Cc1ccccc1C=C")
"inactive"
>>> category("COc1c(N2C[C@@H]3CCCN[C@@H]3C2)c(F)cc2c(=O)c(C(=O)O)cn(C3CC3)c12")
"active"

Would you kindly look at the next entry?
Tell me the recorded outcome of this test for "O=S(=O)(Cl)c1c(Cl)cccc1Cl" .
inactive

---

Biological target: 5-hydroxytryptamine receptor 2A (Homo sapiens) (UniProt P28223)
Sequence (P28223 whole entry, looked up): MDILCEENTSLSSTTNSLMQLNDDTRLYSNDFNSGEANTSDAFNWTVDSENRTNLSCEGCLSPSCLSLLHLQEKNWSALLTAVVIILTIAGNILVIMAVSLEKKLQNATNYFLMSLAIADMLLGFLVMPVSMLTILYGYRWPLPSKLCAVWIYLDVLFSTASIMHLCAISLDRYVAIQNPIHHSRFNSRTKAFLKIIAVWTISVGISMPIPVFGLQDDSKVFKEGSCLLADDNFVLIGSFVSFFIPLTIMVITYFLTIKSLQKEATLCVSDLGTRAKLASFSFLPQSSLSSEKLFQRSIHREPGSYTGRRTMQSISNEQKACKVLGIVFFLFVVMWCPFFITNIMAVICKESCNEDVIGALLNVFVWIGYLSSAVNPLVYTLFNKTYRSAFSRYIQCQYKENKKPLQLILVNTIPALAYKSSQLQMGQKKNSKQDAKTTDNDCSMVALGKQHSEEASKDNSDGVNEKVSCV
Assay: 5-hydroxytryptamine receptor 2A (HTR2A) small molecule antagonists, cell-based qHTS assay (AID 1963586); note: nearly all actives have a fitted effect of over 45% in size
Conditions: HTR2A-CHO cells, DOI-induced calcium flux, fluorescence; series mostly up to 61.5 µM
Results filed as inconclusive are left out. The source made the active and inactive calls. Calls come from the whole dose curve.
In this exercise, the only acceptable responses are 1.0 for active, 0.0 for inactive

>>> category("CC[N+](CC)(CC)Cc1ccccc1")
0.0
>>> category("CC(C)=CCC1C(=O)N(c2ccccc2)N(c2ccccc2)C1=O")
0.0
>>> category("NCCS")
0.0
>>> category("COC(=O)c1cc(C(=O)OC)cc(S(=O)(=O)O)c1")
0.0
>>> category("C=C(C)C(=O)OCCCC")
0.0

Tell me the recorded outcome of this test for "O=C(NC1CCN(CCc2c[nH]c3ccccc23)CC1)c1ccccc1" .
1.0

Tell me the recorded outcome of this test for FC1(F)C(F)(F)C(F)(F)C2(F)C(F)(C1(F)F)C(F)(F)C(F)(F)C1(F)C(F)(F)C(F)(F)C(F)(F)C(F)(F)C12F (stereo not drawn) .
0.0

Tell me the recorded outcome of this test for "O=C(O)Cc1cn(-c2ccccc2)nc1-c1ccc(Cl)cc1" .
0.0

Tell me the recorded outcome of this test for CN1CCN(C2Cc3ccccc3Sc3ccc(Cl)cc32)CC1 (stereo not drawn) .
1.0

Tell me the recorded outcome of this test for "O=C(O)c1cc(C(=O)O)c(C(=O)O)cc1C(=O)O" .
0.0

Tell me the recorded outcome of this test for COc1ccccc1N1CCN(CC(O)COc2cc(OC)c(OC)c(OC)c2)CC1 (stereo not drawn) .
0.0

Tell me the recorded outcome of this test for "CNC(=O)c1ccccc1Sc1ccc2c(/C=C/c3ccccn3)n[nH]c2c1" .
0.0

Tell me the recorded outcome of this test for CC1OCCC1=O (stereo not drawn) .
0.0

---

Molecular target: Beta-2 adrenergic receptor (Homo sapiens) (UniProt P07550)
Sequence (P07550 whole entry, looked up): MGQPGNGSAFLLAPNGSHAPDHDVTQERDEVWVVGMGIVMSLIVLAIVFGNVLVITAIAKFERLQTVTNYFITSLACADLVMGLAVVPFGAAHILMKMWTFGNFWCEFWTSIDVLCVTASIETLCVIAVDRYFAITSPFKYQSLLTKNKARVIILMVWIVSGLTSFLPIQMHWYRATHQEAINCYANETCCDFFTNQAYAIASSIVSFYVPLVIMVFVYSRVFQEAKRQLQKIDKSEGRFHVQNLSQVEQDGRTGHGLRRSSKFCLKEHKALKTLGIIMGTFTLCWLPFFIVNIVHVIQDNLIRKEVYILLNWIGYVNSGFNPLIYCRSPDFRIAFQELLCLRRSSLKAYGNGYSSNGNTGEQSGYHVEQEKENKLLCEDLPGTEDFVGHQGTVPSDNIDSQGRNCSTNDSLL
Experiment: Adrenergic beta2 receptor (ADRB2) small molecule agonists, cell-based qHTS assay (AID 1963593);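 note: CHO cells stably overexpressing human ADRB2; % is set by controls: 0 for no effect and ±100 for the full control effect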
Details: CHO-ADRB2 cells, cAMP HTRF, 30 min; series mostly up to 42.5 µM
Records with an inconclusive call do not appear. Activity calls are given as the source filed them. The call rests on the fitted dose curve.
attributeMeasured: outcome

Worked set:
>>> obsvalue("NS(=O)(=O)c1cc(-c2nn[nH]n2)c(NCc2cccs2)cc1Cl")
"inactive"
>>> obsvalue("CCOC(=O)OCC/C(SC(=O)OCC)=C(\\C)N(C=O)Cc1cnc(C)nc1N")
"inactive"
>>> obsvalue("CCCCCCCCCCCCCCCCCCO")
"inactive"
>>> obsvalue("CCOC(=O)NNc1ccc(N(CC)CC(C)O)nn1 (configuration not stated)")
"inactive"
>>> obsvalue("C=CN1CCCCCC1=O")
"inactive"
>>> obsvalue("CC(=O)N(CC(O)CN(C(C)=O)c1c(I)c(C(=O)NCC(O)CO)c(I)c(C(=O)NCC(O)CO)c1I)c1c(I)c(C(=O)NCC(O)CO)c(I)c(C(=O)NCC(O)CO)c1I (configuration not stated)")
"inactive"
>>> obsvalue("CCOc1nc2cccc(C(=O)O)c2n1Cc1ccc(-c2ccccc2-c2nn[nH]n2)cc1")
"inactive"
>>> obsvalue("CCOC(=O)C1CC(=O)C(=C(O)C2CC2)C(=O)C1 (configuration not stated)")
"inactive"

Param item = "CC(C)(C)C(=O)/C=C/c1ccc(Cl)cc1" ; retrieve measured outcome.
inactive

---

Molecular target: Muscarinic acetylcholine receptor M1 (Homo sapiens) (UniProt P11229)
Sequence (P11229 whole entry, looked up): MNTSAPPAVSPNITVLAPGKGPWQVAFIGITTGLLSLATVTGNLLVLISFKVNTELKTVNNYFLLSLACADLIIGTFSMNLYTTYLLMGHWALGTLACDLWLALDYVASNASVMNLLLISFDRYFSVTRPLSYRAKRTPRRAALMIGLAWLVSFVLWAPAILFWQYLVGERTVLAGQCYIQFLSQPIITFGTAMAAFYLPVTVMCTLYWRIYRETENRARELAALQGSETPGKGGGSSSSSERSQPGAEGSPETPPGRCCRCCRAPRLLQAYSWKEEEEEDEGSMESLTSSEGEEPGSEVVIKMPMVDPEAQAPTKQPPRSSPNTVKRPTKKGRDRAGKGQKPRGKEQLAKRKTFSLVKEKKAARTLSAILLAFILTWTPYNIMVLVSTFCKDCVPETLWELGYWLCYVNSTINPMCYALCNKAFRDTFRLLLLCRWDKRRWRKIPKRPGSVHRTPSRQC
Experiment: Cholinergic receptor muscarinic 1 (CHRM1) small molecule antagonists, cell-based qHTS assay (AID 1963588); note: nearly all actives have a fitted effect of over 40% in size
Conditions: CHRM1-CHO antagonist mode, calcium flux fluorescence; series mostly up to 61.5 µM
From the text: National Center for Advancing Translational Sciences [NCATS] Division of Preclinical Innovation [DPI] U.S. Environmental Protection Agency [EPA] National Institutes of Environmental Health Sciences [NIEHS] National Toxicology Program [NTP] U.S. Food and Drug Administration [FDA] The CHRM1 is a muscarinic receptor. […] The CHRM1-CHO Calcium Flux Assay is a homogeneous fluorescence-based assay for detecting the intracellular calcium level using FDSS kinetic plate reader system. […]
Records with an inconclusive call do not appear. Activity calls are given as the source filed them. The call rests on the fitted dose curve.
In this exercise, the only acceptable responses are yes (1) for active, no (0) for inactive

Consider the following illustrative entries.
>>> category("O=C(CCCN1CCN(c2ccccn2)CC1)c1ccc(F)cc1")
"no (0)"
>>> category("CC(C)NCC(O)c1ccc2ccccc2c1 (stereo unspecified)")
"no (0)"
>>> category("C[Si]1(C)N[Si](C)(C)N[Si](C)(C)N1")
"no (0)"
>>> category("CC1(C)C(=O)C(C)(C)C1=O")
"no (0)"
>>> category("O=C(CCOCCOCCOCCOCCC(=O)Nc1c(I)cc(I)c(C(=O)O)c1I)Nc1c(I)cc(I)c(C(=O)O)c1I")
"no (0)"
>>> category("CCOC(=O)c1ccccc1O")
"no (0)"
>>> category("Cc1cc(S(=O)(=O)O)ccc1N=Nc1c(O)ccc2ccccc12")
"no (0)"
>>> category("CCCCC(CC)COC(=O)CCCCCCCCC(=O)OCC(CC)CCCC (stereo unspecified)")
"no (0)"
>>> category("CCN1CCN(c2cc(-c3ccc(F)cc3)c3c(n2)CCCCCC3)CC1")
"yes (1)"
>>> category("O=C(Nc1ccc2c(O)c(N=Nc3ccc(N=Nc4ccc(S(=O)(=O)O)cc4)cc3)c(S(=O)(=O)O)cc2c1)c1ccccc1")
"no (0)"

Tell me the recorded outcome of this test for "N#CSc1ccc(N)c([N+](=O)[O-])c1" .
no (0)

Tell me the recorded outcome of this test for C=CC(C)(CCC=C(C)C)OC(=O)c1ccccc1 (stereo unspecified) .
no (0)

Tell me the recorded outcome of this test for "NC(=O)c1cn(Cc2c(F)cccc2F)nn1" .
no (0)

Tell me the recorded outcome of this test for "Cc1ccnc2ccccc12" .
no (0)

Tell me the recorded outcome of this test for CC1(c2ccccc2)OC(C(=O)O)=CC1=O (stereo unspecified) .
no (0)

Tell me the recorded outcome of this test for "CCCCCCCCCC(=O)OCC" .
no (0)
